Target: Human IgG (Sigma-Aldrich Corporation) (human)
Assay: Biacore SPR; protein on NTA chip, human IgG injected
Observable: koff (s⁻¹)

I. pPL (SEQ ID NO: 3) (designed binder) ATIRANLIYADGRTQTAEFRGTFEEATAEAYRYADLLARENGRYTVDVADRGYTLNIRFAGGGGGCADDDDDDHHHHHH
II. pPG (SEQ ID NO: 2) (designed binder) AYRLILNGRTLRGETTTEAVDAATAERVFRQYANDNGVDGEWTYDDATRTFTVTERPEVIDASELTPAVTGGGGCADDDDDDHHHHHH
I need your help: which of the pair I , II has higher koff? Label of pick, please.
I
(I: 0.000312 s⁻¹, II: 0.000154 s⁻¹)
